Catalogue of compounds with associated MIC
test system: Penicillium glaucum
The answer is to be given in µg/mL; state only the numeric part.

Worked set:
1. CN(SC(F)(Cl)Cl)S(=O)(=O)c1ccc(Cl)c(Cl)c1
10
2. Cc1ccc(S(=O)(=O)N(C)SC(F)(Cl)Cl)cc1C
10
3. CCN(SC(F)(Cl)Cl)S(=O)(=O)c1ccc(C)cc1
20

Exam item: So what MIC did CCN(SC(F)(Cl)Cl)S(=O)(=O)c1ccc(Cl)cc1 get with Penicillium glaucum?
Marked response: 10

Exam item: Queued: CN(C)S(=O)(=O)N(SC(F)(Cl)Cl)c1ccccc1 [B, reference compound]
Marked response: 50

* * *

test system: Chaetomium globosum
Doc: threshold 20 mg/L (exclusive). Items with MIC beneath it return Criterion met; others return Criterion not met.

Worked cases, answers included:
1) CN(SC(F)(Cl)Cl)S(=O)(=O)c1ccc(Cl)c(Cl)c1
Criterion met
2) CN(C)S(=O)(=O)N(SC(F)(Cl)Cl)c1ccccc1 [B, reference compound]
Criterion not met
3) Cc1ccc(C)c(S(=O)(=O)N(C)SC(F)(Cl)Cl)c1
Criterion met
4) CCN(SC(F)(Cl)Cl)S(=O)(=O)c1ccc(C)cc1
Criterion met
5) CCN(SC(F)(Cl)Cl)S(=O)(=O)c1ccc(Cl)cc1
Criterion not met

Read the next record carefully.
Exam item: Given CCN(SC(F)(Cl)Cl)S(=O)(=O)c1ccccc1 , is recorded MIC strictly lower than 20 mg/L?
Marked response: Criterion met

* * *

Target or system Alternaria tenuis: recorded MIC listed per item.
The answer is to be given in µg/mL; state only the numeric part.

Worked set:
1. O=C1c2ccccc2C(=O)N1SC(F)(Cl)Cl [A, N-fluorodichloromethylthiophthalimide, reference compound]
10
2. CCN(SC(F)(Cl)Cl)S(=O)(=O)c1ccc(C)cc1 [Example 4]
10
3. Cc1ccc(S(=O)(=O)N(C)SC(F)(Cl)Cl)cc1[N+](=O)[O-] [Example 8]
5
4. CCN(SC(F)(Cl)Cl)S(=O)(=O)c1ccc(Cl)cc1 [Example 6]
20
5. CN(C)S(=O)(=O)N(SC(F)(Cl)Cl)c1ccccc1 [B, reference compound]
10
6. Cc1ccc(S(=O)(=O)N(C)SC(F)(Cl)Cl)cc1 [Example 1]
20

Exam item: So what MIC did Cc1ccc(C)c(S(=O)(=O)N(C)SC(F)(Cl)Cl)c1 [Example 19] get with Alternaria tenuis?
Marked response: 100

Exam item: Queued: CN(SC(F)(Cl)Cl)S(=O)(=O)c1ccc([N+](=O)[O-])cc1 [Example 14]
Marked response: 35

* * *

test system: Polyporus versicolor
property measured: log10(MIC) (log10 of the value in µg/mL)
Response schema: value (number) is log10 of MIC in units of µg/mL.

1) O=C1c2ccccc2C(=O)N1SC(F)(Cl)Cl [A, N-fluorodichloromethylthiophthalimide, reference compound]
1.70
2) Cc1ccc(S(=O)(=O)N(C)SC(F)(Cl)Cl)cc1 [Example 1]
0.30
3) CN(SC(F)(Cl)Cl)S(=O)(=O)c1ccc([N+](=O)[O-])cc1 [Example 14]
1.00
4) Cc1ccc(C)c(S(=O)(=O)N(C)SC(F)(Cl)Cl)c1 [Example 19]
2.00
5) CCN(SC(F)(Cl)Cl)S(=O)(=O)c1ccc(Cl)cc1 [Example 6]
0.00

Exam item: Which log10(MIC) value is on record for Cc1ccc(S(=O)(=O)N(C)SC(F)(Cl)Cl)cc1[N+](=O)[O-] [Example 8] ?
Marked response: 0.88

Exam item: Queued: CN(C)S(=O)(=O)N(SC(F)(Cl)Cl)c1ccccc1 [B, reference compound]
Marked response: 1.30

Exam item: Queued: CCN(SC(F)(Cl)Cl)S(=O)(=O)c1ccc(C)cc1 [Example 4]
Marked response: -0.30

* * *

Target or system Penicillium glaucum: recorded MIC listed per item.
The answer is to be given in µg/mL; state only the numeric part.

Worked set:
1) Cc1ccc(S(=O)(=O)N(C)SC(F)(Cl)Cl)cc1[N+](=O)[O-]
20
2) CN(SC(F)(Cl)Cl)S(=O)(=O)c1ccccc1
5
3) CN(SC(F)(Cl)Cl)S(=O)(=O)c1cc(Cl)ccc1Cl
15
4) CN(SC(F)(Cl)Cl)S(=O)(=O)c1ccc([N+](=O)[O-])cc1
20

Exam item: So what MIC did CCN(SC(F)(Cl)Cl)S(=O)(=O)c1ccccc1 get with Penicillium glaucum?
Marked response: 10

* * *

Catalogue of molecules with associated MIC
system: Chaetomium globosum
The answer is to be given in µg/mL; state only the numeric part.

Worked set:
1) CN(SC(F)(Cl)Cl)S(=O)(=O)c1cccc([N+](=O)[O-])c1 [Example 27]
20
2) CN(SC(F)(Cl)Cl)S(=O)(=O)c1ccccc1 [Example 24]
3.5
3) O=C1c2ccccc2C(=O)N1SC(F)(Cl)Cl [A, N-fluorodichloromethylthiophthalimide, reference compound]
100
4) CN(SC(F)(Cl)Cl)S(=O)(=O)c1ccc([N+](=O)[O-])cc1 [Example 14]
20
5) Cc1ccc(S(=O)(=O)N(C)SC(F)(Cl)Cl)cc1[N+](=O)[O-] [Example 8]
15

Exam item: Which MIC value is on record for Cc1ccc(S(=O)(=O)N(C)SC(F)(Cl)Cl)cc1C [Example 17] ?
Marked response: 3.5

Exam item: Queued: CN(SC(F)(Cl)Cl)S(=O)(=O)c1cc(Cl)ccc1Cl [Example 28]
Marked response: 35

Exam item: Queued: COCCCN(SC(F)(Cl)Cl)S(=O)(=O)c1ccc(C)cc1 [Example 22]
Marked response: 5

Exam item: Queued: Cc1ccc(S(=O)(=O)N(C)SC(F)(Cl)Cl)cc1 [Example 1]
Marked response: 3.5

Exam item: Queued: CN(SC(F)(Cl)Cl)S(=O)(=O)c1ccc(Cl)c([N+](=O)[O-])c1 [Example 26]
Marked response: 20

meta.source: patent US4764433A
